Provenance of the data: patent US20210269542A1

# maps each entry to its Kd
Experimental System: T1, cyno GITR-Fc (cynomolgus monkey)
T1 construct: also called cGITR; cynomolgus GITR
T1 chain: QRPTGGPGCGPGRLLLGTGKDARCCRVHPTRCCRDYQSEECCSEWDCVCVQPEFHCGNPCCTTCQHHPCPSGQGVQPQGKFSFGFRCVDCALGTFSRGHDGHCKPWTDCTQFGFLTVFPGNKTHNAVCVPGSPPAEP
Method Notes: BLI Octet RED384, ABP on AHQ sensor, 100 nM antigen, single concentration;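 note: association and dissociation each tracked over 180 s, with dissociation run in antigen-free buffer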
Report the value in nM with no unit label.

Examples with their reported Kd follow.
Binder: ABP37 (antibody, human IgG1, kappa, N297A, V domains shown, IgG1 N297A, bivalent; also called non-TM ABP corresponding to ABP3) VH: QVQLQESGPGLVKPSETLSLTCAVSGYSISSGAGWGWIRQPPGKGLEWIGLIVHSGSTYYNPSLKSRVTISVDTSKNQFSLKLSSVTAADTAVYYCVLESVRGYGDYGGHHAFDIWGQGTMVTVSS VL: DIQMTQSPSSLSASVGDRVTITCRASQSISSYLNWYQQKPGKAPKLLIYAASSLKYGVPSRFSGSGSGTDFTLTISSLQPEDFATYYCQQEYNTPPTFGGGTKVEIKR
Endpoint Unit: nM
Kd: 8.1
--
Binder: ABP47 (antibody, human IgG1, kappa, N297A, V domains shown, IgG1 N297A, H1H2-optimized, non-TM) VH: QVQLVQSGAEVKKPGSSVKVSCKASGGTFVRYAISWVRQAPGQGLEWMGGIIPIFGEAQYAQKFQGRVTITADESTSTAYMELSSLRSEDTAVYYCAREGYYYGALPYWGQGTLVTVSS VL: EIVLTQSPATLSLSPGERATLSCRASQSVSSYLAWYQQKPGQAPRLLIYDASNRATGIPARFSGSGSGTDFTLTISSLEPEDFAVYYCQQHSVFPPTFGGGTKVEIKR
Endpoint Unit: nM
Kd: 88.1

# context switch: different binder, same Kd
Ask | Quick one: Kd for ABP18 (antibody, human IgG1, kappa, N297A, V domains shown) VH: QVQLVQSGAEVKKPGSSVKVSCKASGGTFVRYAISWVRQAPGQGLEWMGGIIPIFGEAQYAQKFRGRATITADESTSTAYMELSSLRSEDTAVYYCAREGYYYGALPYWGQGTLVTVSS VL: EIVLTQSPATLSLSPGERATLSCRASQSVSSYLAWYQQKPGQAPRLLIYDASNRATGIPARFSGSGSGTDFTLTISSLEPEDFAVYYCQQHSVFPPTFGGGTKVEIKR ?
Reply | 8.4
